Molecular target: UniProt O75469
Sequence (O75469 whole entry): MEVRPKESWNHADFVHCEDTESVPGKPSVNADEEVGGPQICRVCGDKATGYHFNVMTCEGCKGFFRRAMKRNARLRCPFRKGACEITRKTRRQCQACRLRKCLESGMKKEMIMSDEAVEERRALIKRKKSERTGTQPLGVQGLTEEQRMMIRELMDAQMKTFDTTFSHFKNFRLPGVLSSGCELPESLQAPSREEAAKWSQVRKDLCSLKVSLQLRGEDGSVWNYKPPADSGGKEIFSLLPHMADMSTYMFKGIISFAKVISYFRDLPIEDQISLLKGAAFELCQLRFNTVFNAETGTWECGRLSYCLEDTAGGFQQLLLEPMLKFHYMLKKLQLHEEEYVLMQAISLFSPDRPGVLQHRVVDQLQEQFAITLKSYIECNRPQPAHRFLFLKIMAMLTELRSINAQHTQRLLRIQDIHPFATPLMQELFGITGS
Assay: Activation of PXR (unknown origin)
pEC50: −log10 of the molar value.
measuredQuantity: pEC50

a = Cc1ccc(-c2cc(C(=O)N[C@H](C)c3ccc(C(F)(F)F)nc3)cc(C(C)(C)O)c2)nc1
b = Cc1ccc(-c2cc(C(=O)N[C@H](C)c3ccc(F)cn3)cc(C(C)(C)O)c2)nc1
c = Cc1ccc(-c2cc(C(=O)N[C@H](C)c3ccc(F)cn3)cc(-c3ncccc3F)c2)nc1
Could you arrange the 3 compounds above by pEC50, starting with the largest number? Please write the labels in the order that was asked for.
b, c, a
